# TARGET_OF_ASSAY: PRMT5-MEP50 complex (full-length, purified) (human | , UniProt O14744 1-637; Q9BQA1 1-342)
# Sequence (O14744 whole entry, chain 1 of 2): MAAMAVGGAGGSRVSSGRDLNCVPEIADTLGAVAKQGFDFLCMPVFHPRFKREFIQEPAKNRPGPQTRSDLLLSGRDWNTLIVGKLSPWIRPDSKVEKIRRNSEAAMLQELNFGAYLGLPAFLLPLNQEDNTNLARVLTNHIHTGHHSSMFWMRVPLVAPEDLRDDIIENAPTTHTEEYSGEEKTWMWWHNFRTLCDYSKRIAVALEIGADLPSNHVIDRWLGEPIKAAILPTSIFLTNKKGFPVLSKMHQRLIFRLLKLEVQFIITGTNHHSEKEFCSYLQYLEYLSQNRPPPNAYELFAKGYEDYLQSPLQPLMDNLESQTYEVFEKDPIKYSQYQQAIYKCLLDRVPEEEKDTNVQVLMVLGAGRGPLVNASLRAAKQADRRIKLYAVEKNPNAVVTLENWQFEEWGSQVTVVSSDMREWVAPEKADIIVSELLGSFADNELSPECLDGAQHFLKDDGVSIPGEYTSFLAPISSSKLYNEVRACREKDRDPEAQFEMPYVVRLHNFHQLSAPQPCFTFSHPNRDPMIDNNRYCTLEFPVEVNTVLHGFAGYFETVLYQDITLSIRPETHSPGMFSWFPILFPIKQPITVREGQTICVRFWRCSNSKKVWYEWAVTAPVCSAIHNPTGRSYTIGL
# Sequence (Q9BQA1 whole entry, chain 2 of 2): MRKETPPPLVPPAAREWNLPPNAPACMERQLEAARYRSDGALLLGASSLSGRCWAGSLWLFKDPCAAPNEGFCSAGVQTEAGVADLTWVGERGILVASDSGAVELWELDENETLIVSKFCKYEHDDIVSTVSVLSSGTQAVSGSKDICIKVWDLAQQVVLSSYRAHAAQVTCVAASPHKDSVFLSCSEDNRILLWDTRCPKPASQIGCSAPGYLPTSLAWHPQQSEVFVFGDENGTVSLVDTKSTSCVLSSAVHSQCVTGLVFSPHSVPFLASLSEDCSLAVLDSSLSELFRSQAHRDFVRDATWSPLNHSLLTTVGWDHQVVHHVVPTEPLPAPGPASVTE
# TEST_DETAILS: FP
pKd: −log10 of the molar value. Bridge positions count the residues as written; N and C are the ends. Square brackets hold non-standard residues; d marks the D form. * marks the point of attachment. FITC = O=C1OC2(c3ccc(O)cc3Oc3cc(O)ccc32)c2ccc(NC(=S)*)cc21; Dap = NC[C@H](N)C(=O)O; AEEA = NCCOCCOCC(=O)O
OBSERVABLE: pKd

Entry under review: {FITC-AEEA}-SRVVP[Dap]QFDDADSSD-NH2 (lactam 6-9; not fully specified) [5] . Reported pKd?
< 5.70
